# SYSTEM NAME: T1, human POT1C (residues 330-634) Q623H (human, UniProt Q9NUX5 330-634, Q623H)
# T1 construct: POT1, human, C-terminal portion (OB-fold and HJR domain), residues 330-634, with the germline melanoma-associated mutation Q623H; PDB 5UN7 holds the wild-type parent with the same limits; The methods describe tag cleavage by TEV for the co-purified complex; For ITC the proteins were purified separately; also called POT1C Q623H; source: E. coli ScarabXpress T7 lac, purified (Ni-NTA, Poros HS/HQ, …)
# T1 sequence (looked up): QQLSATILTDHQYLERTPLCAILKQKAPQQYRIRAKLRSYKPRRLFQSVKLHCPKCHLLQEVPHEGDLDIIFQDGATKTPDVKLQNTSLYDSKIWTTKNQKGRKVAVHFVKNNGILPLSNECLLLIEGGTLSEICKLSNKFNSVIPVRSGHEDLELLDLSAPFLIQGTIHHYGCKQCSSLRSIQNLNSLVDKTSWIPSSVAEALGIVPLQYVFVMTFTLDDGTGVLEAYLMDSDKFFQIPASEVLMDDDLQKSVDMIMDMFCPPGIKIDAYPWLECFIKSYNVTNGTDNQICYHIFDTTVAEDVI
# ASSAY REMARKS: ITC; 100 uM TPP1(PBD) injected into the cell with 10 uM POT1C; 25 °C; 25 mM Hepes pH 7.5, 0.1 M KCl, 5% glycerol, 1 mM TCEP; 16 injections of 2.47 ul; three independent experiments
# CONDITION SET: both partners purified
MEASURE: Kd (nM)

binder="human TPP1(PBD), residues 255-337 (domain or fragment) SQLLDEMREDQEHQGALVCLAESCLTLEGPCTAPPVTHWAASRCKATGEAVYTVPSSMLCISENDQLILSSLGPCQRTQGPEL" measure=Kd experimental_result=472

Recorded values, source paper PMC5394233.
